Just for reference, the supplement of paper PMC9433436 is where these values come from.

Target: E. coli RNase P holoenzyme (M1 P RNA + rnpA protein)
Sequence: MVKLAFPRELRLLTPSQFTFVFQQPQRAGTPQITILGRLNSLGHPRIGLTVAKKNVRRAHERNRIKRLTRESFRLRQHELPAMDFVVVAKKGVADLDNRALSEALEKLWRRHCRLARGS
Experiment: relative kcat/Km (krel) vs genomic leader AAAGAU (relative (reference leader = 1)); higher = faster RNase P cleavage
Conditions: fraction of substrate reacted: ~13-16% (15.68% repeat 1, 13.17% repeat 2)
The full ranking holds about 4,100 sequences; the median of “relative kcat/Km (krel) vs genomic leader AAAGAU” is about 1.7, and the highest 2% start at about 6.5. What follows is part of a selection rich in the highest values, with near analogues and random picks from the rest.
Classification field: 1 (yes) = relative kcat/Km at or over 3; 0 (no) = relative kcat/Km under 3.

Sample answers from the record:
sequence=CGATAC label_class="1 (yes)"
sequence=GTCGCT label_class="0 (no)"
sequence=CTCGCA label_class="1 (yes)"
sequence=TTTTCC label_class="0 (no)"
sequence=CTCATA label_class="1 (yes)"
sequence=CACAAA label_class="1 (yes)"

## Input Hello, I need to know if `CCAGCA` has measured relative kcat/Km not below 3. Thanks!
## Output 0 (no)

## Input Hello, I need to know if `ATCATT` has measured relative kcat/Km not below 3. Thanks!
## Output 1 (yes)

## Input Hello, I need to know if `CGTCCT` has measured relative kcat/Km not below 3. Thanks!
## Output 0 (no)

====

Target: E. coli RNase P holoenzyme (M1 P RNA + rnpA protein) (UniProt P0A7Y8)
Sequence: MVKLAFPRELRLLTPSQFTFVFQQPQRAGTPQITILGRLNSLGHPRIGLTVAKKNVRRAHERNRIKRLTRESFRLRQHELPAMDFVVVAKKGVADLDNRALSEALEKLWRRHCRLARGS
Experiment: relative kcat/Km (krel) vs genomic leader AAAGAU (relative (reference leader = 1)); higher = faster RNase P cleavage
Details: fraction of substrate reacted: ~26-29% (28.66% repeat 1, 26.4% repeat 2)
In all, about 4,100 sequences were measured (“relative kcat/Km (krel) vs genomic leader AAAGAU”: median about 1.7, highest 2% from about 6.5 on). Shown is part of a subset that was picked to be rich in the highest values.
Classification field: 1 = relative kcat/Km at or over 5; -1 = relative kcat/Km under 5.

sequence=GTTAAG label_class=-1
sequence=CGGACG label_class=-1

## Input Hello, I need to know if `GCCAAC` has measured relative kcat/Km not below 5. Thanks!
## Output -1

## Input Hello, I need to know if `TTTTGC` has measured relative kcat/Km not below 5. Thanks!
## Output 1

## Input Hello, I need to know if `TTTTGT` has measured relative kcat/Km not below 5. Thanks!
## Output -1

## Input Hello, I need to know if `TAAAGG` has measured relative kcat/Km not below 5. Thanks!
## Output -1

## Input Hello, I need to know if `GTATAG` has measured relative kcat/Km not below 5. Thanks!
## Output -1

## Input Hello, I need to know if `TCGGGC` has measured relative kcat/Km not below 5. Thanks!
## Output -1

## Input Hello, I need to know if `GACATC` has measured relative kcat/Km not below 5. Thanks!
## Output 1

## Input Hello, I need to know if `AACGTG` has measured relative kcat/Km not below 5. Thanks!
## Output -1

## Input Hello, I need to know if `CAAAGC` has measured relative kcat/Km not below 5. Thanks!
## Output -1

## Input Hello, I need to know if `TCCCGC` has measured relative kcat/Km not below 5. Thanks!
## Output 1

## Input Hello, I need to know if `AACTGT` has measured relative kcat/Km not below 5. Thanks!
## Output -1

## Input Hello, I need to know if `ACAGTT` has measured relative kcat/Km not below 5. Thanks!
## Output -1

## Input Hello, I need to know if `ATAACT` has measured relative kcat/Km not below 5. Thanks!
## Output -1

## Input Hello, I need to know if `CATTTG` has measured relative kcat/Km not below 5. Thanks!
## Output -1

## Input Hello, I need to know if `GGGACA` has measured relative kcat/Km not below 5. Thanks!
## Output -1

## Input Hello, I need to know if `ATTTGC` has measured relative kcat/Km not below 5. Thanks!
## Output 1

## Input Hello, I need to know if `ACAGAT` has measured relative kcat/Km not below 5. Thanks!
## Output -1

## Input Hello, I need to know if `TGGGGT` has measured relative kcat/Km not below 5. Thanks!
## Output -1

## Input Hello, I need to know if `TTCATC` has measured relative kcat/Km not below 5. Thanks!
## Output 1

## Input Hello, I need to know if `TACGAA` has measured relative kcat/Km not below 5. Thanks!
## Output 1

====

Target: E. coli RNase P holoenzyme (M1 P RNA + rnpA protein)
Sequence: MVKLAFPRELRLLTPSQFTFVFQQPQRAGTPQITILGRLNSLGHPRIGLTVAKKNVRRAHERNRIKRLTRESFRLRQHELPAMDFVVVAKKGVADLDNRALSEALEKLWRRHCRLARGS
Assay: relative kcat/Km (krel) vs genomic leader AAAGAU (relative (reference leader = 1)); higher = faster RNase P cleavage
Conditions: fraction of substrate reacted: ~26-29% (28.66% repeat 1, 26.4% repeat 2)
In all, about 4,100 sequences were measured (“relative kcat/Km (krel) vs genomic leader AAAGAU”: median about 1.7, highest 2% from about 6.5 on). Shown is part of a subset that was picked to be rich in the highest values.
Catalogue of relative kcat/Km readings, one per entry.

Some entries whose results are on file:
sequence=ATCTAT result=7.98
sequence=TGCTAT result=3.79
sequence=GGTCGC result=3.37
sequence=TTTTAT result=8.5
sequence=GTCGCA result=7.77
sequence=AACCGA result=4.66
sequence=CTTCAT result=6.67
sequence=AGCTAT result=5.23
sequence=CCCTGC result=5.06
sequence=GTTTAG result=3.84

## Input Please supply the value of reported relative kcat/Km for the item `AGTTAG`
## Output 4.77

## Input Please supply the value of reported relative kcat/Km for the item `GTGCAA`
## Output 1.32

## Input Please supply the value of reported relative kcat/Km for the item `GGCGCA`
## Output 3.02

## Input Please supply the value of reported relative kcat/Km for the item `CTGCCT`
## Output 1.91

## Input Please supply the value of reported relative kcat/Km for the item `TTTTAC`
## Output 7.2

## Input Please supply the value of reported relative kcat/Km for the item `TGATTA`
## Output 3.73

====

Biological target: E. coli RNase P holoenzyme (M1 P RNA + rnpA protein)
Sequence: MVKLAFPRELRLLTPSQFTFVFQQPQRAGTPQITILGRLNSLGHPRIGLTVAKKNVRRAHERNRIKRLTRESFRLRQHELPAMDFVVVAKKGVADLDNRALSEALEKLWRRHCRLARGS
Test: relative kcat/Km (krel) vs genomic leader AAAGAU (relative (reference leader = 1)); higher = faster RNase P cleavage
Conditions: fraction of substrate reacted: ~26-29% (28.66% repeat 1, 26.4% repeat 2)
Whole data set: some 4,100 sequences, median “relative kcat/Km (krel) vs genomic leader AAAGAU” near 1.7, cut for the highest 2% near 6.5. The full list was thinned out, with the highest values kept by preference.
Classification field: Satisfied = relative kcat/Km at or over 6; Not satisfied = relative kcat/Km under 6.

Sample answers from the record:
sequence=ACGTTC label_class="Not satisfied"
sequence=TCCGAA label_class=Satisfied
sequence=TGCAAC label_class="Not satisfied"
sequence=AGTAAG label_class="Not satisfied"
sequence=TTCAAT label_class=Satisfied
sequence=CTCCAG label_class="Not satisfied"
sequence=TTCAAA label_class=Satisfied
sequence=GCATAA label_class="Not satisfied"
sequence=CCCAAC label_class="Not satisfied"
sequence=AATTTT label_class="Not satisfied"

## Input Hello, I need to know if `TCCGAC` has measured relative kcat/Km not below 6. Thanks!
## Output Satisfied

## Input Hello, I need to know if `GATTAG` has measured relative kcat/Km not below 6. Thanks!
## Output Not satisfied

## Input Hello, I need to know if `AGCCGC` has measured relative kcat/Km not below 6. Thanks!
## Output Not satisfied

## Input Hello, I need to know if `TAGGTG` has measured relative kcat/Km not below 6. Thanks!
## Output Not satisfied

## Input Hello, I need to know if `TCAATT` has measured relative kcat/Km not below 6. Thanks!
## Output Not satisfied

## Input Hello, I need to know if `TATTGG` has measured relative kcat/Km not below 6. Thanks!
## Output Not satisfied

## Input Hello, I need to know if `CATTAC` has measured relative kcat/Km not below 6. Thanks!
## Output Satisfied

## Input Hello, I need to know if `GTCTAG` has measured relative kcat/Km not below 6. Thanks!
## Output Not satisfied

## Input Hello, I need to know if `TTCCAT` has measured relative kcat/Km not below 6. Thanks!
## Output Satisfied

## Input Hello, I need to know if `TAAGCC` has measured relative kcat/Km not below 6. Thanks!
## Output Not satisfied

## Input Hello, I need to know if `GATTAT` has measured relative kcat/Km not below 6. Thanks!
## Output Satisfied
